- System: 786-0 renal
- protocol.summary: NCI tumour cell line growth inhibition, 48 h
experimental.readout: TGI (µM)
Answers are plain numbers, in µM.

Please review the following examples before continuing.
>>> test_value("COc1cc(C2C(Cl)C(=O)N2NC(=O)c2ccc(N)cc2)cc(Br)c1O (configuration not stated)")
26
>>> test_value("C=C(CN1CC2C[C@](C(=O)OC)(c3cc4ccccc4[nH]3)C1C(OC)C2OC)S(=O)(=O)c1ccccc1 (some centres not stated)")
10
>>> test_value("COc1ccc(/C=C2\\C=C(c3ccccc3)N(CCc3ccccc3)C2=O)cc1OC")
5.85
>>> test_value("O=c1oc2ccc(Br)cc2c(=O)n1-c1ccc(I)cc1F")
6.16
>>> test_value("CCN(CC)C1CCC(Nc2c(C(C)=O)cnc3ccc(-c4ccc(O)c(Cl)c4)cc23)CC1 (configuration not stated)")
44.8

Would you mind giving TGI for every molecule in the list below?
1. COc1cc([C@@H]2c3cc4c(cc3[C@@H](Nc3ccc(C(=O)N[C@H]5CCc6cc(OC)c(OC)c(OC)c6-c6ccc(SC)c(=O)cc65)cc3)[C@H]3COC(=O)[C@H]23)OCO4)cc(OC)c1O
2. O=C(NCCNCCCNC(=O)c1cc(-c2ccccc2)nc2ccccc12)c1cccc(OCc2ccccc2)c1OCc1ccccc1
3. COc1ccc(C2C(C)C(=O)C(C)C(c3ccc(OC)cc3)N2N=O)cc1 (configuration not stated)
4. O=C1c2ccccc2-c2c1c1ccccc1c(=O)n2CCCNCCCCNCCCN1C(=O)c2ccccc2C2C(=O)c3ccccc3C21 (configuration not stated)
5. CC(C)Cc1cc2c(cc1O)CCC1C2CC[C@@]2(C)C1CC[C@@H]2O (some centres not stated)
6. CN1C/C=C/CCOc2cccc(c2)-c2ccnc(n2)Nc2cccc(c2)C1
7. COc1ccc2cc(-c3nc(N)nc(N4N=C(C)CC4(C)C)n3)c(=N)oc2c1
8. NC(N)=N/N=C/c1ccc(-c2ccc(-c3cc(Cl)cc(Cl)c3)s2)cc1

1: 19.7; 2: 3.09; 3: 467; 4: 0.782; 5: 23.6; 6: 0.203; 7: 36.3; 8: 3.66

Would you mind giving TGI for every molecule in the list below?
1. CCNC(=O)O/N=C1\CCC2[C@@H]3CC=C4C[C@@H](OC5CCCCO5)CC[C@]4(C)C3CC[C@]12C (some centres not stated)
2. CCN(CC)Cc1c(/C=C\c2cc(OC)c(OC)c(OC)c2)ccc(OC)c1O

[6.48, 78.9]

---

- System: KM12 colon
- protocol.summary: NCI tumour cell line growth inhibition, 48 h
Where a SMILES comes first, the peptide text is derived from it. The star is where a group is joined. Fmoc = O=C(OCC1c2ccccc2-c2ccccc21)*; Boc = CC(C)(C)OC(=O)*
Kindly state TGI for each of the entries shown.

Please review the following examples before continuing.
>>> test_value("O=C1C=C(OCCCCl)C(=O)c2c(O)ccc(O)c21")
"3.37 µM"
>>> test_value("CC1(C)[C@@H](OC(=O)CCC(=O)O)CC[C@]2(C)[C@H]3C(=O)C=C4[C@@H]5C[C@@](C)(C(=O)O)CC[C@]5(C)CC[C@@]4(C)[C@]3(C)CC[C@@H]12")
"84.1 µM"
>>> test_value("O=C(c1ccc(Cl)cc1)N(C(=S)OCc1ccccn1)c1ccccc1")
"> 100 µM"
>>> test_value("O=C(CNC(c1ccccc1)(c1ccccc1)c1ccccc1)NC1CCCCC1NC(=O)CNC(c1ccccc1)(c1ccccc1)c1ccccc1 (stereo not given)")
"> 100 µM"
>>> test_value("O=C(CCCl)NNC1=NCCCN1")
"> 100 µM"

Would you mind giving TGI for every compound in the list below?
1. COc1cc(-c2cc(-c3cc(OC)c(OC)c(OC)c3)nc3nc(N)[nH]c(=O)c23)ccc1Oc1ccnc2cc(Cl)ccc12
2. CC1=CC(=O)CC(C)(C)C1/C=C/C(C)=C/C=C/C(C)=C/C=C/C=C(C)/C=C/C=C(C)/C=C/C1=C(C)CC(O)CC1(C)C (stereo not given)
3. CC(C)(C)OC(=O)NCCCCC(NC(=O)C(Cc1c[nH]c2ccccc12)NC(=O)OCC1c2ccccc2-c2ccccc21)C(=O)N1CCCC1C(=O)NCC(N)=O (stereo not given) (Fmoc-WK(Boc)PG-NH2; configuration not given here)
4. COc1ccccc1NC(=O)c1nc2ccc([N+](=O)[O-])cc2nc1C
5. CN(C)c1ccc(/C=C/C2=[N+](C)c3ccccc3C2(C)C)cc1
6. Cc1ccc(S(=O)c2sccc2C=O)cc1 (stereo not given)

["14.9 µM", "> 100 µM", "> 100 µM", "> 100 µM", "5.85 µM", "70.3 µM"]

Would you mind giving TGI for every compound in the list below?
1. O=C1C(Cl)N(c2cccc([N+](=O)[O-])c2)C1c1c[nH]c2ccccc12 (stereo not given)
2. COc1cc(C(=O)Nc2cc(OC)c3ccn(C)c3c2)cc2c1C[C@]1(C)CC[C@@H](O)C(C)(C)[C@H]1O2
3. O=C(Nc1n[nH]c2nnc(-c3cccnc3)cc12)C1CC1
4. CC(=O)[CH-]C(=O)c1ccccc1.CC(=O)[CH-]C(=O)c1ccccc1.C[C@]12CCC(=O)C=C1CC[C@@H]1C2CC[C@@]2(C)C1CC[C@@H]2[O-].C[C@]12CCC(=O)C=C1CC[C@@H]1C2CC[C@@]2(C)C1CC[C@@H]2[O-].Cl.[Ti+4] (stereo not given in full)
5. CSc1nc2c(ncn2C2OCC(O)C(O)C2O)c(=O)n1C (stereo not given)
6. CC(=O)OC1COC(N2C(=O)C(=O)c3cc(Br)ccc32)C(OC(C)=O)C1OC(C)=O (stereo not given)
7. Oc1cc2ccccc2c(-c2c(O)c(O)cc3ccccc23)c1O
8. COc1ccc(C2C3CCc4ccccc4C3=NN2S(=O)(=O)c2ccc(/C=C/C(=O)O)cc2)cc1 (stereo not given)

["49.7 µM", "> 100 µM", "> 20.1 µM", "66.2 µM", "> 100 µM", "> 100 µM", "17.4 µM", "43.4 µM"]
